Cited source for all entries: patent US20180057505A1

- assayed target: PAR2 (HT-29 cells) (Homo sapiens)
- Construct: host or cells: HT-29
- Sequence (P55085 26-397): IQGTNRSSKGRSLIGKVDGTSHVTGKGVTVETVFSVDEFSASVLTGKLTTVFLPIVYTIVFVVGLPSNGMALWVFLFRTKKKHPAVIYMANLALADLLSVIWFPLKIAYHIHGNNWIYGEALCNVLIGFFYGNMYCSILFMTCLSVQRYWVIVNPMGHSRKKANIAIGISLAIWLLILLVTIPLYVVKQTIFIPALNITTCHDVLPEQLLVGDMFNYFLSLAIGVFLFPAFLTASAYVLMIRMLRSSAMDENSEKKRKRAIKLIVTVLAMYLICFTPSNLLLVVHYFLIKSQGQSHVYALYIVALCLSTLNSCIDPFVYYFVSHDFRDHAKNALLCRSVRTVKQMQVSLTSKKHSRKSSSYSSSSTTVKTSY
- test method notes: Ca FLIPR TETRA assay, ANTAGONIST mode, activator 3.1 U/mL trypsin
- Format: cell-based
- condition label: HT-29 cells, activator 3.1 U/mL trypsin; maximal antagonist concentration per Method (A: 0.1, 1 or 2 μM; B: 50 μM)
Binary call on IC50 with cut-off 3 nM: strictly below means label 1, and equality or higher means label 0.

>>> df
                                smiles_code  label_value
0  Cc1nnc(C(=O)N2CCN(C(=O)c3cc4nc(-c5ccc(C(F)(F)F)cc5)cc(C(C)(C)C)c4o3)C(C)(C)C2)[nH]1      label 0
1  CC(C)c1cc(-c2ccc(F)cc2)nc2cc(C(=O)N3CCN(C(=O)CC#N)CC3(C)C)oc12      label 0
2  CCCS(=O)(=O)N1CCN(C(=O)c2cc3nc(-c4ccc(F)cc4)cc(C4(C)CC4)c3o2)C(C)(C)C1      label 0
3  CC(C)(C)c1cc(-c2ccc(Cl)cc2)nc2cc(C(=O)N3CCN(C(=O)c4nnc[nH]4)CC3(C)C)oc12      label 1
4  Cc1nnc(C(=O)N2CCN(C(=O)c3cc4nc(-c5ccc(Cl)cc5)cc(C(C)(C)C)c4o3)C(C)(C)C2)o1      label 0
5  CC(C)(C)c1cc(C2CCC(F)(F)CC2)nc2cc(C(=O)N3CCN(C(=O)c4ncccn4)CC3(C)C)oc12      label 0

====

- assayed target: PAR2 (HT-29 cells) (Homo sapiens, UniProt P55085)
- Construct: host or cells: HT-29
- Sequence (P55085 26-397): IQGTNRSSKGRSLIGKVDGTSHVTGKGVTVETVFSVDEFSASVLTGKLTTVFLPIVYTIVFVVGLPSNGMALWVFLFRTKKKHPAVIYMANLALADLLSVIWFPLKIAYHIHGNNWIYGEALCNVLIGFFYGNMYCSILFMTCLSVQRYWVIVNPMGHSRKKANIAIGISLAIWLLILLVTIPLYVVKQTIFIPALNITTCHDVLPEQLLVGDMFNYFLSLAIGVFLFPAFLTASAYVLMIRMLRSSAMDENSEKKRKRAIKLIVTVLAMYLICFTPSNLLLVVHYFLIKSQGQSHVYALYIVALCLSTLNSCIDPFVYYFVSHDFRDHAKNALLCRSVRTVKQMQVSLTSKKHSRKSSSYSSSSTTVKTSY
- test method notes: Ca FLIPR TETRA assay, ANTAGONIST mode, activator 8 μM SLIGKV
- Assay type: cell-based
- condition label: HT-29 cells; activator 8 μM SLIGKV; Method A: maximal concentration of antagonist 0.1, 1 or 2 μM
- Method: Protocol for Testing PAR2 Compounds in ANTAGONIST Mode Using the Ca FLIPR^TETRA Assay (384 Well). […] A first read was performed to determine whether the test compounds on their own can activate Ca^2+ responses. The cells were incubated with the compounds for 30 min at r. t. and then read in ANTAGONIST mode in the same plate by stimulating with 6.2 uL of a fixed concentration of the activator: final concentrations 8 μM SLIGKV, 1 U/mL Thrombin, 3.1 U/mL trypsin, or 0.6 μM UTP.
metric name: IC50 (nM)

>>> df
                                    compound  value_reported
 0  CC(C)(C)c1cc(-c2ccc(Cl)cc2)nc2cc(C(=O)N3CCN(c4ccncc4)C(=O)C3(C)C)oc12 [Example I-328]              16
 1  CC(C)(C)c1cc(-c2ccc(Cl)c(F)c2)nc2cc(C(=O)N3CCN(c4nc(-c5ccccc5)ccc4C(=O)O)CC3(C)C)oc12 [Example I-516]             1.8
 2  CC(C)(C)c1cc(-c2ccc(F)cc2)nc2cc(C(=O)N3CCN(C(=O)[C@H]4C[C@@](C)(O)C4)C(C)(C)C3)oc12 [Example I-314]             190
 3  CC(C)(C)c1cc(-c2ccc(Cl)cc2)nc2cc(C(=O)N3CCN(c4cncc(C(=O)O)c4)CC3(C)C)oc12 [Example I-477]             0.7
 4  CC(C)(C)c1cc(C2CCC(Cl)(Cl)CC2)nc2cc(C(=O)N3CCN(C(=O)[C@H]4C[C@@](C)(O)C4)CC3(C)C)oc12 [Example I-305]             1.5
 5  CC(C)(C)c1cc(-c2ccc(Cl)c(F)c2)nc2cc(C(=O)N3CCN(c4ccn[nH]4)C(=O)C3(C)C)oc12 [Example I-406]              10
 6  CCS(=O)(=O)NCC(=O)N1CCN(C(=O)c2cc3nc(-c4ccc(Cl)cc4)cc(C(C)(C)C)c3o2)C(C)(C)C1 [Example I-467]             4.3
 7  CC1(C)CCC(c2cc(C(C)(C)C)c3oc(C(=O)N4CCN(c5cnc(C(=O)O)cn5)CC4(C)C)cc3n2)CC1 [Example I-451]             6.7
 8  CC1(C)CCC(c2cc(C(C)(C)C)c3oc(C(=O)N4CCN(c5cccc(-c6nnn[nH]6)n5)CC4(C)C)cc3n2)CC1 [Example I-345]             0.3
 9  CC1(C)CCC(c2cc(C(C)(C)C)c3oc(C(=O)N4CCN(C(=O)CCC(=O)O)CC4(C)C)cc3n2)CC1 [Example I-418]             2.1
10  Cc1cc(N2CCN(C(=O)c3cc4nc(-c5ccc(Cl)cc5)cc(C(C)(C)C)c4o3)C(C)(C)C2)ncn1 [Example I-390]              19
11  CCC(CC)c1cc(-c2ccc(F)cc2)nc2cc(C(=O)N3CCN(C#N)C(=O)C3(C)C)oc12 [Example I-302]              14
12  CC(C)(C)c1cc(-c2ccc(Cl)c(F)c2)nc2cc(C(=O)N3CCC(c4ncc(C(=O)O)cn4)CC3(C)C)oc12 (stereo not shown) [Example I-428]             0.6

====

- test method notes: In vivo rat pharmacokinetics experiments
- condition label: intravenous bolus 0.5 to 1 mg/kg, non-compartmental analysis
In this section, each of the compounds is paired with its reported Clp.
metric name: Clp (mL/min/kg)

>>> print(df.to_string())
                                   compound  metric_name  value_reported
0  CC(C)(C)c1cc(-c2ccc(Cl)c(F)c2)nc2cc(C(=O)N3CCN(c4ccc(C(=O)O)cn4)CC3(C)C)oc12 [Compound I-287]          Clp             5.2
1  CC1(C)CCC(c2cc(C(C)(C)C)c3oc(C(=O)N4CCN(c5ncc(-c6nnn[nH]6)cn5)CC4(C)C)cc3n2)CC1 [Compound I-346]          Clp            16.5
2  CC1(C)CCC(c2cc(C(C)(C)C)c3oc(C(=O)N4CCN(c5cccc(C(=O)O)n5)CC4(C)C)cc3n2)CC1 [Compound I-449]          Clp             5.0
3  CC(C)(C)c1cc(-c2ccc(Cl)c(F)c2)nc2cc(C(=O)N3CCN(C(=O)CC4(C(=O)O)CCCC4)CC3(C)C)oc12 [Compound I-324]          Clp            21.3
4  CC1(C)CCC(c2cc(C(C)(C)C)c3oc(C(=O)N4CCN(C(=O)[C@H]5CC[C@@](C)(C(=O)O)CC5)CC4(C)C)cc3n2)CC1 [Compound I-316]          Clp            13.9
5  Cc1ccc(C(=O)O)c(N2CCN(C(=O)c3cc4nc(-c5ccc(Cl)c(F)c5)cc(C(C)(C)C)c4o3)C(C)(C)C2)n1 [Compound I-352]          Clp             6.5
